# Tested on: PPARg:RXRa 90nM:30nM, anti-RXR (NR concentration 90 nM, RXRa partner concentration 30 nM)
# protocol-details: PBM binding z-score (relative to random genomic background probes); higher = stronger binding; sequences stand for … in GC…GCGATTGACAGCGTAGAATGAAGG
Is PBM binding z-score at least 5? Then YES. If not, NO.

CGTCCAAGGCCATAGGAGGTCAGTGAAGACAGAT    NO
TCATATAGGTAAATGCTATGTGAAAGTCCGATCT    NO
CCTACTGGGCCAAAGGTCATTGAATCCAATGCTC    YES
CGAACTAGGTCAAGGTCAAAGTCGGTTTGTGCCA    YES

Here's the next entry for you.
# check: PBM binding z-score of `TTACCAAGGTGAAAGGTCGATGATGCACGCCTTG` is greater than or equal to 5
YES
